- System: Escherichia coli TOP10;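 note: peptides expressed intracellularly from a pBAD plasmid library in pooled LB shake-flask culture, induced with 0.3% L-arabinose, DNA abundance read by NGS, three biological replicates, DESeq2 with apeglm shrinkage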
- Assay method text: shrunken log2 fold change of peptide-encoding DNA abundance (4.5 h post-induction vs induction); higher = less antimicrobial activity (less host growth inhibition)
- Protocol conditions: time post-induction: 4.5 h; library: site-saturation at positions 5, 18, 19, 20
Reported property: shrunken log2 fold change
I only need the number, thanks.

Query `RRIRSRPPRLPRPRPRPPQNPRP` yields shrunken log2 fold change of 0.294

Query `RRIRSRPPRLPRPRPRPCRDPRP` yields shrunken log2 fold change of -0.0619

Query `RRIRYRPPRLPRPRPRPCKLPRP` yields shrunken log2 fold change of -0.698

Query `RRIRTRPPRLPRPRPRPWEHPRP` yields shrunken log2 fold change of -0.069

Query `RRIRTRPPRLPRPRPRPYSGPRP` yields shrunken log2 fold change of -0.00196

Query `RRIRCRPPRLPRPRPRPFTTPRP` yields shrunken log2 fold change of -0.286

Query `RRIRDRPPRLPRPRPRPVMYPRP` yields shrunken log2 fold change of -0.166

Query `RRIRVRPPRLPRPRPRPVEYPRP` yields shrunken log2 fold change of -1.63

Query `RRIRIRPPRLPRPRPRPWLWPRP` yields shrunken log2 fold change of -0.0533

Query `RRIRERPPRLPRPRPRPCMSPRP` yields shrunken log2 fold change of -0.00711

Query `RRIRWRPPRLPRPRPRPIAGPRP` yields shrunken log2 fold change of 0.0596

Query `RRIRRRPPRLPRPRPRPQALPRP` yields shrunken log2 fold change of 0.128

Query `RRIRYRPPRLPRPRPRPIIVPRP` yields shrunken log2 fold change of -0.249

Query `RRIRPRPPRLPRPRPRPLGGPRP` yields shrunken log2 fold change of 1.53

Query `RRIRFRPPRLPRPRPRPVYWPRP` yields shrunken log2 fold change of -0.195

Query `RRIRDRPPRLPRPRPRPCYEPRP` yields shrunken log2 fold change of 0.00345

Query `RRIRMRPPRLPRPRPRPRAVPRP` yields shrunken log2 fold change of 0.989

Query `RRIRYRPPRLPRPRPRPDFHPRP` yields shrunken log2 fold change of -0.695

Query `RRIRVRPPRLPRPRPRPQPWPRP` yields shrunken log2 fold change of 0.152

Query `RRIRHRPPRLPRPRPRPRVAPRP` yields shrunken log2 fold change of 0.395

Query `RRIRCRPPRLPRPRPRPERPPRP` yields shrunken log2 fold change of 0.777

Query `RRIRTRPPRLPRPRPRPASVPRP` yields shrunken log2 fold change of 0.00118
